Biological target: interaction of NOR‐1 with NCoR1 (Homo sapiens)
Construct: coding for the hinge region and LBD of the canonical isoform of NOR‐1
Test: Reporter gene assay for NOR‐1 interaction with NCoR1 in HEK293T cells
Settings: n=3, read-out: IC50, antagonism of NOR‐1 interaction with NCoR1
assay.metric: pIC50
Please keep in mind that pIC50 is minus log10 of the molar concentration; only the number is needed.

Request: pIC50, test system interaction of NOR‐1 with NCoR1 (Homo sapiens), entry COC(=O)c1c[nH]c2ccc(Br)cc12 [compound 19, Methyl 5‐bromoindole‐3‐carboxylate]
4.92

###

Biological target: interaction of NOR‐1 with SMRT (Homo sapiens, UniProt Q92570)
Construct: coding for the hinge region and LBD of the canonical isoform of NOR‐1; expressed in transfected cells; host or cells: HEK293T
Sequence (Q92570 394-623 limits assumed): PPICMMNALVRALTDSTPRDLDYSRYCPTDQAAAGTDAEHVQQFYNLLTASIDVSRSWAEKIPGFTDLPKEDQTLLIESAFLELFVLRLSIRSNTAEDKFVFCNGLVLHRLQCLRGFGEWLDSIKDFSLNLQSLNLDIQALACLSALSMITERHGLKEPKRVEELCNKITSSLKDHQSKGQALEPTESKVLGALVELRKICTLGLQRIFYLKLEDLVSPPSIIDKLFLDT
Test: Reporter gene assay for NOR‐1 interaction with SMRT in HEK293T cells
Format: cell-based
Conditions: n=3, read-out: IC50, antagonism of NOR‐1 interaction with SMRT
assay.metric: IC50 (µM)
Only the number, expressed in µM, is required.

# IC50 lookup, item COC(=O)c1c[nH]c2ccc(Br)cc12 [compound 19, Methyl 5‐bromoindole‐3‐carboxylate]
9
